- System: primary human hepatic stellate cells (donor 1)
- assay.notes: scaled lipid accumulation score (0 = DMSO-like, 1 = nortriptyline-like); higher = stronger HSC inactivation (lipid re-accumulation), active = hit call of the paper
- test.context: library stock concentration: 10 mM; 48 h
Counter-ions that a name gives are not always drawn. In all, about 5,800 compounds went through this assay and about 620 (11%) showed activity.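 Rule for the calls: active = score above a cut-off or among the top three wells of a plate; in these data no inactive exceeds 0.85.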 Only a selection was taken, and actives are over-represented in it overall.
Lab note: assign the record to one of active, inactive

# count of solved cases: 3
{"molecule": "CCOC(=O)[C@H](CCc1ccccc1)N[C@@H](C)C(=O)N1CCC[C@H]1C(=O)O [Enalapril maleate]", "cat": "inactive"}
{"molecule": "Cl.N/C(=N\\C(=O)c1nc(Cl)c(N)nc1N)NCc1ccccc1 [Benzamil hydrochloride]", "cat": "active"}
{"molecule": "CC#CCOC(=O)c1c(C)nc2sc3c(c2c1N)CCC(O)C3 (centres undefined)", "cat": "active"}

GET /call?item= CCOC(=O)[C@H](CCc1ccccc1)N[C@@H](C)C(=O)N1CCC[C@H]1C(=O)O [Enalapril Maleate] returns the recorded outcome of this test.
inactive

Another molecule to check: O=C1Nc2ccc(I)cc2C1=Cc1cc(Br)c(O)c(Br)c1
inactive

Another molecule to check: C[C@H](CS)C(=O)N1CCC[C@H]1C(=O)O
inactive

Another molecule to check: O=C1c2ccc(O)c(O)c2C(=O)c2c(O)ccc(O)c21 [Quinalizarin]
inactive

Another molecule to check: C=CC(=O)Nc1ccc2ncnc(Nc3cccc(Br)c3)c2c1
inactive

Another molecule to check: C[C@H](CS)C(=O)N1CCC[C@H]1C(=O)O [Captopril]
inactive

Another molecule to check: NC(=O)NC(=O)Cc1ccccc1 [Phenacemide]
inactive

Another molecule to check: CCOC(=O)[C@H](CCc1ccccc1)N[C@@H](C)C(=O)N1CCC[C@H]1C(=O)O
inactive

----------
- Test system: primary human hepatic stellate cells (donor 1)
- assay.notes: scaled lipid accumulation score (0 = DMSO-like, 1 = nortriptyline-like); higher = stronger HSC inactivation (lipid re-accumulation), active = hit call of the paper
- test.context: library stock concentration: 5.4 mM; 48 h
Counter-ions that a name gives are not always drawn. The campaign covered roughly 5,800 compounds. About 620 (11%) showed activity. This is one part of a sample in which actives are shown more often than they occur.
readout.type: scaled lipid accumulation score

Here are 3 molecules together with their reported answers.
{"molecule": "C#C[C@]1(OC(C)=O)CC[C@H]2[C@@H]3CCC4=CC(=NO)CC[C@@H]4[C@H]3CC[C@@]21CC (mixture of isomers) [Norgestimate]", "scaled lipid accumulation score": "≤ 0 (inactive)"}
{"molecule": "CC/C(=C(\\c1ccccc1)c1ccc(OCCN(C)C)cc1)c1ccccc1 [Tamoxifen citrate]", "scaled lipid accumulation score": "0.421 (inactive)"}
{"molecule": "Cc1scc2c1N(C(=O)CN1CCN(C)CC1)c1ccccc1NC2=O [Telenzepine 2HCl]", "scaled lipid accumulation score": "0.006 (inactive)"}

Record request: scaled lipid accumulation score value, item CN1CCN(c2c(F)cc3c(=O)c(C(=O)O)cn(CCF)c3c2F)CC1
≤ 0 (inactive)

----------
- Tested on: primary human hepatic stellate cells (donor 1)
- assay.notes: scaled lipid accumulation score (0 = DMSO-like, 1 = nortriptyline-like); higher = stronger HSC inactivation (lipid re-accumulation), active = hit call of the paper
- test.context: library stock concentration: 6.4 mM; 48 h
Where a name gives a salt, the structure may show the parent alone. In all, about 5,800 compounds went through this assay and about 620 (11%) showed activity. The full list was thinned out, with actives kept by preference.
readout.type: scaled lipid accumulation score

Here are 5 compounds together with their reported answers.
{"compound": "CNC(=C[N+](=O)[O-])NCCSCc1ccc(CN(C)C)o1 [Ranitidine HCl]", "scaled lipid accumulation score": "≤ 0 (inactive)"}
{"compound": "Clc1ccc2c(c1)C(N1CCNCC1)=Nc1ccccc1O2 [Amoxapine]", "scaled lipid accumulation score": "0.598 (inactive)"}
{"compound": "C#C[C@]1(O)CCC2C3CCC4=CC(=O)CC[C@@H]4C3CC[C@@]21CC (some centres undefined) [Norgestrel]", "scaled lipid accumulation score": "1.05 (active)"}
{"compound": "CCN(CC)CCNC(=O)c1ccc(NC(C)=O)cc1 [Acecainide hydrochloride]", "scaled lipid accumulation score": "≤ 0 (inactive)"}
{"compound": "Clc1ccc2c(c1)CCc1cccnc1C2=C1CCNCC1 [Desloratidine]", "scaled lipid accumulation score": "0.46 (inactive)"}

Hey, can you go through the list below and give me scaled lipid accumulation score for every item?
1. C#C[C@]1(O)CC[C@H]2[C@@H]3CCC4=CC(=O)CC[C@@H]4[C@H]3CC[C@@]21CC [Levonorgestrel]
2. C(=C(\CCNC1)/C1)(/c2c(cccn2)CC3)\c(ccc(Cl)c4)c34 [Desloratadine]
3. CN(C)CCC=C1c2ccccc2CCc2ccccc21 [Amitriptyline hydrochloride]
4. CNC(=C[N+](=O)[O-])NCCSCc1ccc(CN(C)C)o1 [Ranitidine]

["0.107 (inactive)", "1.03 (active)", "0.347 (inactive)", "≤ 0 (inactive)"]
